System: L. donovani-infected THP-1 macrophages, intracellular amastigote imaging
ASSAY NAME: antileishmanial activity in infected THP-1 macrophages – imaging, THP-1 host macrophages, host toxicity (AID 1159564)
EXPERIMENTAL SETUP: measured here: THP-1 host cell toxicity
ENDPOINT: IC50 (µM)
Response body: numeric value in µM, unit text excluded.

Would you please look over these solved cases?
{"COMPOUND": "CNS(=O)(=O)c1ccccc1Nc1nc(Nc2ccnn2C)ncc1Cl", "ENDPOINT RESULT": 0.32}
{"COMPOUND": "Cc1cc(C#N)c([N+](=O)[O-])cc1Br", "ENDPOINT RESULT": 25}
{"COMPOUND": "Cc1ccc(S(=O)(=O)Nc2ccc(CN3CCN(C(=O)c4cccc(C)c4)CC3)cc2)cc1", "ENDPOINT RESULT": 40}
{"COMPOUND": "COc1ccccc1C(=O)Nc1nnc(-c2ccc3c(c2)OCO3)s1", "ENDPOINT RESULT": 16}
{"COMPOUND": "c1ccc2c(CCOc3nccnc3-c3ccncc3)c[nH]c2c1", "ENDPOINT RESULT": 20}

Note: attention shifts to another entry.
Looking up CN(CC1CCCO1)S(=O)(=O)c1ccc(C(=O)Nc2nc(-c3ccccn3)cs2)cc1 (stereo not given) , I see its IC50 listed as 7.9

----------
Test system: L. donovani-infected THP-1 macrophages, intracellular amastigote imaging
ASSAY NAME: antileishmanial activity in infected THP-1 macrophages – imaging, THP-1 host macrophages, host toxicity (AID 1159564)
EXPERIMENTAL SETUP: measured here: THP-1 host cell toxicity
Property: IC50; scope: individual compounds
Response body: numeric value in µM, unit text excluded.

{"COMPOUND": "Nc1nc(-c2ccccn2)nc(N)c1Cc1c(F)cccc1Cl", "ENDPOINT RESULT": 32}
{"COMPOUND": "c1ccc2[nH]c(-c3ccc(N4CCCC4)nc3)nc2c1", "ENDPOINT RESULT": 32}
{"COMPOUND": "Cc1cc(Nc2ccc(C#N)c(Cl)c2C)n[nH]1", "ENDPOINT RESULT": 20}
{"COMPOUND": "CN(C)Cc1cccc(Nc2nccc(-c3ccc(NCCN)c(C#N)c3)n2)c1", "ENDPOINT RESULT": 6.3}
{"COMPOUND": "C[C@@H](Oc1cc(-n2cnc3ccc(O[C@H]4CCNC4)cc32)sc1C(N)=O)c1ccccc1Cl", "ENDPOINT RESULT": 6.3}
{"COMPOUND": "NCC(Cc1ccccc1)NC(=O)c1cnc(-c2c[nH]c3ncccc23)s1 (stereo not drawn)", "ENDPOINT RESULT": 6.3}

Looking up `CN(Cc1cccnc1)Cc1ccc(N2CCN(C(=O)C3(c4ccc(Cl)cc4)CC3)CC2)nc1` , I see its IC50 listed as 10

Looking up `COc1ccc([N+](=O)[O-])cc1NC(=O)c1cc(Cl)ccc1O` , I see its IC50 listed as 10

Looking up `N#Cc1ccc(Br)cc1[N+](=O)[O-]` , I see its IC50 listed as 25

Looking up `Cc1cc2nc(N3CC[C@H]3C(N)=O)nc(Nc3cc(C4CC4)[nH]n3)c2s1` , I see its IC50 listed as 0.79

Looking up CC(C)CC(=O)NC(c1cccs1)c1ccc2cccnc2c1O (stereo not drawn) , I see its IC50 listed as 1.6

Looking up `Cc1cc(-c2cccc3ccccc23)nc2nc(N)nc(N)c12` , I see its IC50 listed as 50

Looking up `COc1ccc(OC)c(NC(=O)c2ccc([N+](=O)[O-])o2)c1` , I see its IC50 listed as 20

----------
Property: IC50; scope: individual molecules
System: L. donovani-infected THP-1 macrophages, intracellular amastigote imaging
ASSAY NAME: antileishmanial activity in infected THP-1 macrophages – imaging, THP-1 host macrophages, host toxicity (AID 1159564)
EXPERIMENTAL SETUP: measured here: THP-1 host cell toxicity
Response body: numeric value in µM, unit text excluded.

Would you please look over these solved cases?
{"MOLECULE": "NC(=O)c1ncc(N[C@@H]2CCCNC2)nc1Nc1cccc(Cl)c1", "READOUT UNIT": "µM", "IC50": 2}
{"MOLECULE": "c1ccc(Nc2nc3ccccc3[nH]2)nc1", "READOUT UNIT": "µM", "IC50": 25}
{"MOLECULE": "COc1ccnc2[nH]cc(-c3cc(C(=O)N[C@H](CO)c4ccccc4)co3)c12", "READOUT UNIT": "µM", "IC50": 0.79}

Looking up `CCNc1cc(-c2ccccn2)nc(Nc2ccccc2)n1` , I see its IC50 listed as 20

Looking up Cn1nccc1-c1cc(OC(CN)c2ccccc2)cnc1-c1ccco1 (stereo not drawn) , I see its IC50 listed as 16

Looking up `Cc1cc(Br)sc1CNCCCNc1cc(=O)c2ccccc2[nH]1` , I see its IC50 listed as 20

Looking up `O=[N+]([O-])c1ccc(-c2nnn(-c3cccnc3)n2)o1` , I see its IC50 listed as 13

Looking up COc1ccccc1C=CCN1C[C@H]2CCC[C@@H](C1)C2(O)c1cccnc1 (stereo partly drawn) , I see its IC50 listed as 40

Looking up `O=C(NCCNc1noc(-c2ccc([N+](=O)[O-])cc2)n1)c1ccc(Cl)cc1` , I see its IC50 listed as 16

Looking up `CCCc1cc(N)nc(-c2cc(CCC)cc(N)n2)c1` , I see its IC50 listed as 20

Looking up `COc1ccc2ncc(Cl)c(CCN3CC[C@H](NCc4cc5c(cn4)OCS5)[C@@H](O)C3)c2n1` , I see its IC50 listed as 6.3

----------
System: L. donovani-infected THP-1 macrophages, intracellular amastigote imaging
ASSAY NAME: antileishmanial activity in infected THP-1 macrophages – imaging, THP-1 host macrophages, host toxicity (AID 1159564)
EXPERIMENTAL SETUP: measured here: THP-1 host cell toxicity
// returns 0 unless IC50 is strictly below 8 µM, in which case 1

Some solved cases for reference:
{"MOLECULE": "NC(=O)c1ccc(-c2cccc(OCCN3CCN(C4CCCCC4)CC3)c2)cc1", "CATEGORY LABEL": 0}
{"MOLECULE": "CC1CN(S(=O)(=O)c2ccc(NC(=O)c3cc(C4CC4)nc4c3cnn4C(C)C)cc2)CC(C)O1 (stereo not given)", "CATEGORY LABEL": 0}
{"MOLECULE": "NS(=O)(=O)c1ccc(Nc2ncc3cccc(OC4CCNCC4)c3n2)cc1", "CATEGORY LABEL": 1}

Would you kindly verify if IC50 of `CCc1c(C)nc(-n2nc(C)cc2NC(=O)COc2ccccc2F)[nH]c1=O` is strictly less than 8 µM?
1

Would you kindly verify if IC50 of `CCCCNc1nccc(-c2c(-c3ccc(F)cc3)nn3c(N4CCOCC4)cccc23)n1` is strictly less than 8 µM?
0

Would you kindly verify if IC50 of `COc1cc(NC(=O)Nc2cccc(CNC(=O)OC3CCCCC3)c2)ccc1-c1cnco1` is strictly less than 8 µM?
0

Would you kindly verify if IC50 of Cc1nccn1C1CCCN(C(=O)c2cc3c(F)cccc3s2)C1 (stereo not given) is strictly less than 8 µM?
0

Would you kindly verify if IC50 of `CC(C)CC(=O)Nc1cc(C2CC2)nn1-c1nc2c(c(=O)[nH]1)CCCC2` is strictly less than 8 µM?
1

Would you kindly verify if IC50 of `COc1ccc(C(=O)Nc2ccc(NC(=O)CO)cc2)cc1` is strictly less than 8 µM?
0

----------
Test system: L. donovani-infected THP-1 macrophages, intracellular amastigote imaging
ASSAY NAME: antileishmanial activity in infected THP-1 macrophages – imaging, THP-1 host macrophages, host toxicity (AID 1159564)
EXPERIMENTAL SETUP: measured here: THP-1 host cell toxicity
pIC50: −log10 of the molar value.
Property: pIC50; scope: individual compounds

Would you please look over these solved cases?
{"COMPOUND": "N#Cc1cccc(CN2CCC(N(Cc3cccnc3)C(=O)c3cc(F)c(F)cc3F)CC2)c1", "ENDPOINT RESULT": "< 4.30"}
{"COMPOUND": "O=C(Cn1cnc2cc([N+](=O)[O-])ccc2c1=O)NCCc1ccc(Cl)cc1Cl", "ENDPOINT RESULT": "< 4.30"}
{"COMPOUND": "Cc1ccc(C)c(OC2CCN(C(=O)C(C)n3ccnc3)CC2)c1 (configuration not stated)", "ENDPOINT RESULT": "< 4.30"}

Looking up `CS(=O)(=O)c1ccc(CC(=O)Nc2nc(-c3ccc(Cl)s3)cs2)cc1` , I see its pIC50 listed as 4.80

Looking up `O=C(Cc1ccccc1)Nc1ccccc1C(=O)Nc1nccs1` , I see its pIC50 listed as < 4.30

Looking up `Cn1nccc1NC(=O)Cn1ccc(-c2ccncc2)n1` , I see its pIC50 listed as < 4.30

Looking up `Cc1c(C(=O)NCCCCn2ccnc2)oc2c(C)cccc12` , I see its pIC50 listed as < 4.30

Looking up `Cc1nn(C)c(Cl)c1CN(Cc1cccnc1)Cc1ccsc1` , I see its pIC50 listed as < 4.30

Looking up `CC(C)n1c(-c2nonc2N)nc2cccc(OCCN3CCCC3)c21` , I see its pIC50 listed as 4.49

Looking up `COc1cc2c(cc1OC)[C@H]1[C@@H](C)c3ccc(OC)c(OC)c3CN1CC2` , I see its pIC50 listed as < 4.30

Looking up `COc1ccc(C(=O)Nc2c(C)nn(COc3cccc(C(F)(F)F)c3)c2C)cc1` , I see its pIC50 listed as 4.49

Looking up Clc1ccc(OCCN2CCCCC2c2cccnc2)c(Cl)c1 (configuration not stated) , I see its pIC50 listed as < 4.30
